Study system: human translation (HEK 293F lysate)
Experimental protocol: Human in vitro translation (HsIVT) assay, HEK 293F lysate, luciferase reporter
Assay type: biochemical
Condition info: Pathogen Box hits; weighted mean ± SD of two technical replicates; read-out: IC50 value (μM) HsIVT
Quick reference: IC50 of the listed items.
Lab book: enter the figure in µM, no units written.

Record excerpt, results attached:
{"columns": ["Compound", "Observation type", "Observed measurement"],
 "data": [
  ["Cc1ccc2c(c1C)NC(=O)C21NN=C(c2ccccc2)S1 (stereo not shown)", "IC50", 7.7],
  ["COc1cc(C2=NCCN2)ccc1-c1cn(-c2cccc(C3=NCCN3)c2)nn1", "IC50", 5.2],
  ["COc1ccc(C(=N)N)cc1-c1cn(-c2ccc(C(=N)N)cc2)nn1", "IC50", 18],
  ["COc1cc(C2=NCCN2)ccc1-n1cc(-c2cccc(C3=NCCN3)c2)nn1", "IC50", 14]
]}

Now take the following compound into account.
response.value for `O=C(Nc1ccc(C(F)(F)F)c(C(F)(F)F)c1)c1cc(Cl)ccc1O` (field: IC50) = 0.5
